Test Description: UCSD infection assay, host cell cytotoxicity (CC50)
Format: cell-based
Assay Context: mouse, B10R host cells infected with L. donovani; host B10R cells
Reported Metric: CC50 at 72 h

Please review the following examples before continuing.
In [3]: df
Out[3]:
                                   molecule  endpoint_value
0  COc1ccc(N2C(=O)c3[nH]nc(CC(C)C)c3C2c2ccc(Br)cc2F)nc1 (centres unmarked) [BUCMD00648]         3.98 µM
1  COc1ccc(N2C(=O)c3[nH]nc(CC(C)C)c3C2c2ccc(F)cc2C)nc1 (centres unmarked) [BUCMD00646]         12.6 µM
2  CC(C)Cc1n[nH]c2c1C(c1c(Cl)cccc1Cl)N(c1ccc(N(C)C)cc1)C2=O (centres unmarked) [CMLD011553]         5.01 µM

Please state, for each entry, its recorded CC50 at 72 h.
1. COc1ccc(N2C(=O)c3[nH]nc(CC(C)C)c3C2c2ccc(C)s2)cc1 (centres unmarked) [CMLD011123]
2. CC(C)Cc1n[nH]c2c1C(c1ccccc1C(F)(F)F)N(c1cncc(F)c1)C2=O (centres unmarked) [BUCMD00699]
3. CC(C)Cc1n[nH]c2c1C(c1ccc(F)cc1F)N(c1ccc(C(=O)N3CCCC3)cc1)C2=O (centres unmarked) [BUCMD00714]
4. C#CCCCCOc1ccc(C2c3c(CC(C)C)n[nH]c3C(=O)N2c2ccc(OC)nc2)c(Cl)c1 (centres unmarked) [BUCMD00738]
5. CC(C)Cc1n[nH]c2c1C(c1ccccc1C(F)(F)F)N(c1ccc(N3CCN(C)CC3)nc1)C2=O (centres unmarked) [BUCMD00723]

Found:
1: 15.8 µM; 2: 5.01 µM; 3: 10 µM; 4: 7.94 µM; 5: 7.94 µM

###

Test Description: UCSD infection assay, host cell cytotoxicity (CC50)
Assay type: cell-based
Assay Context: mouse, B10R host cells infected with L. donovani; footnote d
Reported Metric: CC50 at 72 h (µM)
Give bare numbers, in µM.

Please review the following examples before continuing.
In [3]: df
Out[3]:
                                   compound  endpoint_value
0  CC(C)Cc1n[nH]c2c1C(c1ccccc1Br)N(c1ccc(Br)cc1)C2=O (stereo not shown)            6.31
1  CC(C)Cc1n[nH]c2c1C(c1ccccc1Br)N(c1ccc(N(C)C)cc1)C2=O (stereo not shown)            6.31
2  Cc1cc(F)ccc1C1c2c(CC(C)C)n[nH]c2C(=O)N1c1ccc(Br)cc1 (stereo not shown)            3.98
3  COc1ccc(N2C(=O)c3[nH]nc(CC(C)C)c3[C@@H]2c2cccc(C(F)(F)F)c2)cn1            6.31
4  Cc1cc(N2C(=O)c3[nH]nc(CC(C)C)c3C2c2ccccc2Cl)ccn1 (stereo not shown)              20

Please state, for each entry, its recorded CC50 at 72 h.
1. CC(C)Cc1n[nH]c2c1C(c1ccc(F)cc1)N(c1ccc(N(C)C)cc1)C2=O (stereo not shown)
2. Cc1cc(F)ccc1C1c2c(CC(C)C)n[nH]c2C(=O)N1c1ccc2c(c1)OCO2 (stereo not shown)
3. CC(C)Cc1n[nH]c2c1C(c1ccc(F)cc1)N(c1ccc3c(c1)OCCO3)C2=O (stereo not shown)
4. CC(C)Cc1n[nH]c2c1C(c1ccccc1Cl)N(c1ccc(N(C)C)cc1)C2=O (stereo not shown)

Found:
1: 6.31; 2: 12.6; 3: 15.8; 4: 6.31
